- assay method text: Amount of fragrance ingredients retained on paper blotter after evaporation (ethanol extraction, GC-MS)
- Type: physicochemical
- measurement setup: Table 3; fragrance TAK in C1; 240 min; 32°C
Please use Criterion met whenever amount of fragrance ingredient retained on blotter (percentage of the initial amount) is not below 70%, and Criterion not met whenever it is.

{"compound": "CC(=O)OC1CCCCC1C(C)(C)C (centres unmarked) [Verdox™, (2-tert-butylcyclohexyl) acetate]", "classification": "Criterion not met"}
{"compound": "C=C(C)[C@H]1CC=C(C)CC1 [Limonene]", "classification": "Criterion not met"}
{"compound": "CC/C=C\\CCOC(=O)c1ccccc1O [Cis 3-hexenyl salicylate, Cis-3-hexenyl salicylate]", "classification": "Criterion met"}
{"compound": "C=CC(C)(O)CCC=C(C)C (centres unmarked) [Linalool]", "classification": "Criterion not met"}

###

- assay method text: Amount of fragrance ingredients retained on paper blotter after evaporation (ethanol extraction, GC-MS)
- Format: physicochemical
- measurement setup: Table 6; fragrance TAK in EdT1; 60 min; 32°C
measured parameter: amount of fragrance ingredient retained on blotter (percentage of the initial amount)

{"molecule": "C=CC(C)(O)CCC=C(C)C (centres unmarked)", "value observed": "9%"}
{"molecule": "CC(=O)OC1CCCCC1C(C)(C)C (centres unmarked) [Verdox™, (2-tert-butylcyclohexyl) acetate]", "value observed": "29%"}
{"molecule": "CC(C=O)Cc1ccc(C(C)(C)C)cc1 (centres unmarked)", "value observed": "84%"}
{"molecule": "CCCCCCOC(C)=O [Hexyl acetate, Hexyl Acetate]", "value observed": "2%"}
{"molecule": "CC/C=C\\CCOC(=O)c1ccccc1O [Cis 3-hexenyl salicylate, Cis-3-hexenyl salicylate]", "value observed": "87%"}
{"molecule": "C=C(C)[C@H]1CC=C(C)CC1", "value observed": "<1%"}
{"molecule": "O=C1CCCCCCCCCCCC(=O)OCCO1 [Ethylene Brassylate]", "value observed": "85%"}
{"molecule": "C=CC(C)(CCC=C(C)C)OC(C)=O (centres unmarked) [Linalyl acetate]", "value observed": "27%"}

###

# amount of fragrance ingredient retained on blotter (percentage of the initial amount) values compiled below
- assay method text: Amount of fragrance ingredients retained on paper blotter after evaporation (ethanol extraction, GC-MS)
- Assay type: physicochemical
- measurement setup: Table 3; fragrance TAK in EdT1; 15 min; 32°C
measured parameter: amount of fragrance ingredient retained on blotter (percentage of the initial amount)

{"compound": "C=CC(C)(CCC=C(C)C)OC(C)=O (centres unmarked) [Linalyl acetate]", "value observed": "70%"}
{"compound": "CCCCCCOC(C)=O [Hexyl acetate, Hexyl Acetate]", "value observed": "13%"}
{"compound": "O=C1CCCCCCCCCCCC(=O)OCCO1 [Ethylene Brassylate]", "value observed": "88%"}
{"compound": "CC(C=O)Cc1ccc(C(C)(C)C)cc1 (centres unmarked) [Lilial™, 3-(4-tert-Butylphenyl)-2-methylpropanal]", "value observed": "91%"}
{"compound": "C=C(C)[C@H]1CC=C(C)CC1 [Limonene]", "value observed": "1%"}
{"compound": "CC(=O)OC1CCCCC1C(C)(C)C (centres unmarked) [Verdox™, (2-tert-butylcyclohexyl) acetate]", "value observed": "70%"}
{"compound": "C=CC(C)(O)CCC=C(C)C (centres unmarked) [Linalool]", "value observed": "57%"}
{"compound": "CC/C=C\\CCOC(=O)c1ccccc1O [Cis 3-hexenyl salicylate, Cis-3-hexenyl salicylate]", "value observed": "96%"}

Source listed as patent EP3375430A1.
